tested on: Puccinia recondita tritici (leaf rust); experiment: Test 1 greenhouse foliar spray screen, leaf rust on wheat; format: in vivo; settings: Puccinia recondita, foliar, Test 1, foliar spray on wheat; disease control rating at 400 ppm / 100 ppm
readout-kind: pest or weed control at 400 ppm

Observe how each entry below is paired with its result.
> print(dat)
                                   molecule  value.observed
1       FC(F)(F)c1ccc2c(CCCc3ccccc3)ccnc2c1        0 to 19%
2          Fc1ccc(CCOc2ccnc3c(Cl)cccc23)cc1      90 to 100%
3   Fc1cccc2c(OCCCc3cccc(C(F)(F)F)c3)ccnc12        0 to 19%
4  Cc1ccc(CCOc2cc(OCCc3ccc(C)cc3)c3cccc(F)c3n2)cc1       20 to 89%
5           Fc1cccc2c(OCCCCOc3ccccc3)ccnc12        0 to 19%

Answer for every listed entry: what is its pest or weed control at 400 ppm? The entries follow.
1. CC(C)c1ccccc1CCOc1ccnc2c(F)cccc12
2. Clc1ccc(CCOc2ccnc3c(Br)cccc23)cc1
3. CC(CCOc1ccnc2c(F)cccc12)CC(C)(C)C (stereo not shown)
4. Clc1cccc2c(CCCc3ccccc3)ccnc12
5. Fc1cccc2c(OCCc3ccc(Cl)cc3)ccnc12
6. COc1ccccc1CCOc1ccnc2ccccc12 [Example 229, 4-[2-(2-methoxyphenyl)ethoxy]quinoline]
7. CC(Cc1ccccc1)Oc1ccnc2ccccc12 (stereo not shown)
8. Fc1ccccc1CCOc1ccnc2c(F)cccc12

a:
["90 to 100%", "20 to 89%", "90 to 100%", "90 to 100%", "90 to 100%", "90 to 100%", "90 to 100%", "90 to 100%"]

Batch request: pest or weed control at 400 ppm per item, same order as input.
1. Fc1cccc2c(OCCCCCCOc3ccccc3)ccnc12
2. Clc1ccc(CCCOc2ccnc3c(Cl)cccc23)cc1
3. Clc1ccc2c(OCCc3ccc(-c4ccccc4)cc3)ccnc2c1
4. Fc1cccc2c(CCCc3ccc(-c4ccccc4)cc3)ccnc12

a:
20 to 89%
0 to 19%
20 to 89%
90 to 100%

Dear colleague, could you please provide pest or weed control at 400 ppm for the molecules listed below?
1. CC(CNc1ccnc2cc(Cl)ccc12)c1ccc(Cl)cc1 (stereo not shown)
2. Cc1ccc(CCOc2ccnc3ccccc23)cc1 [Example 210, 4-[2-(4-methylphenyl)ethoxy]quinoline]
3. Fc1cccc2c(OCC=Cc3ccccc3)ccnc12
4. OCCc1ccc(CCOc2ccnc3c(F)cccc23)cc1
5. Clc1ccc2c(OCCc3ccccc3)ccnc2c1

a:
["90 to 100%", "90 to 100%", "0 to 19%", "90 to 100%", "90 to 100%"]

----------
test system: southern armyworm (Spodopetra eridania Cramer); assay: Mite/insect screen, SAW; type: in vivo; conditions: Spodoptera eridania, percent mortality; SAW, SM & MA RATE 400 PPM; read-out: SAW RESULTS %
readout-kind: mortality at 400 ppm (%)
Give bare numbers, in %.

> print(dat)
                                   compound          readout.kind  units.symbol  value.observed
1  OC(CNc1ccnc2c(F)cccc12)c1ccc2ccccc2c1 (stereo not shown)  mortality at 400 ppm             %             100
2  CC(=O)N(CCC1=CCCCC1)c1ccnc2c(C)ccc(C)c12  mortality at 400 ppm             %               0
3  CC(=O)N(CCc1cccc(C(F)(F)F)c1)c1ccnc2cc(Cl)ccc12  mortality at 400 ppm             %               0
4        Clc1ccc(CCCNc2ccnc3cc(Cl)ccc23)cc1  mortality at 400 ppm             %               0
5          COc1ccc(CCNc2ccnc3ccc(C)cc23)cc1  mortality at 400 ppm             %               0

For each of the compounds below, note its mortality at 400 ppm.
1. Cc1cc(C)c2nccc(NCCc3ccc(Cl)cc3)c2c1
2. Fc1cc(F)c2nccc(NCCc3ccc(-c4ccccc4)cc3)c2c1

a:
[0, 80]
